# normalized growth per entry
measurement.protocol: chemical genetic growth profiling, strain panel (AID 1159580);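 note: tested at 20 µM; growth read once vehicle control cultures reached saturation at 30 °C; 1 = growth at the plate median or of vehicle wells; lower values mean less growth of the strain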
assay.context: S. cerevisiae deletion strains, growth OD, locus YNL298W, strain CLA4, active compounds read low
The whole screen tested about 5,500 compounds, of which about 2,000 (36%) were called active. About 18% were inconclusive and are not listed. This is one part of the list.
readout.name: normalized growth

molecule=COc1ccc(-c2cc(=O)c3c(O)cc(O)cc3o2)cc1O readout_name="normalized growth" readout_value="1.03 (inactive)"
molecule="CCC(=O)O[C@]1(C(=O)CCl)[C@@H](C)CC2C3CCC4=CC(=O)C=C[C@]4(C)[C@@]3(F)[C@@H](O)C[C@@]21C (stereo partly specified)" readout_name="normalized growth" readout_value="0.964 (inactive)"
molecule=COc1ccc(-c2cc(=O)c3c(O)cc(O)cc3o2)cc1 readout_name="normalized growth" readout_value="0.994 (inactive)"
molecule=CC1(C)[C@@H]2CC[C@@]1(C)C(=O)C2 readout_name="normalized growth" readout_value="0.99 (inactive)"
molecule=CC(=O)Oc1ccccc1C(=O)Oc1ccccc1C(=O)O readout_name="normalized growth" readout_value="0.979 (inactive)"
molecule=COC(=O)[C@H]1[C@H]2C[C@H]3c4[nH]c5cc(OC)ccc5c4CCN3C[C@H]2C[C@@H](OC(=O)c2cc(OC)c(OC)c(OC)c2)[C@@H]1OC readout_name="normalized growth" readout_value="0.996 (inactive)"
molecule="C/C=C/CC(C)C(O)C1C(=O)NC(CC)C(=O)N(C)CC(=O)N(C)C(CC(C)C)C(=O)NC(C(C)C)C(=O)N(C)C(CC(C)C)C(=O)NC(C)C(=O)NC(C)C(=O)N(C)C(CC(C)C)C(=O)N(C)C(CC(C)C)C(=O)N(C)C(C(C)C)C(=O)N1C (stereo unspecified)" readout_name="normalized growth" readout_value="0.987 (inactive)"
molecule="CCCCCC(O)C1C(=O)OC(C)C(O)/C=C/C=C/C=C/C=C/C=C(\\C)C(O)CC(O)CC(O)CC(O)CC(O)CC(O)CC1O (stereo unspecified)" readout_name="normalized growth" readout_value="1.02 (inactive)"
molecule="CCC(=O)OCC(=O)[C@@]1(OC(=O)CC)[C@@H](C)CC2C3CCC4=CC(=O)C=C[C@]4(C)C3(F)[C@@H](O)C[C@@]21C (stereo partly specified)" readout_name="normalized growth" readout_value="0.942 (inactive)"
molecule="CCCCC(=O)O[C@]1(C(=O)CO)[C@@H](C)CC2C3CCC4=CC(=O)C=C[C@]4(C)[C@@]3(F)C(O)C[C@@]21C (stereo partly specified)" readout_name="normalized growth" readout_value="0.977 (inactive)"
molecule="CC(=O)N1CCN(c2ccc(OCC3CO[C@](Cn4ccnc4)(c4ccc(Cl)cc4Cl)O3)cc2)CC1 (stereo partly specified)" readout_name="normalized growth" readout_value="0.246 (active)"

// data source = PubChem BioAssay AID1159580
